Entry source: paper PMC11674187

Target: hNav1.5 (Homo sapiens, UniProt Q14524)
Construct: host or cells: HEK293T
Sequence (Q14524 whole entry): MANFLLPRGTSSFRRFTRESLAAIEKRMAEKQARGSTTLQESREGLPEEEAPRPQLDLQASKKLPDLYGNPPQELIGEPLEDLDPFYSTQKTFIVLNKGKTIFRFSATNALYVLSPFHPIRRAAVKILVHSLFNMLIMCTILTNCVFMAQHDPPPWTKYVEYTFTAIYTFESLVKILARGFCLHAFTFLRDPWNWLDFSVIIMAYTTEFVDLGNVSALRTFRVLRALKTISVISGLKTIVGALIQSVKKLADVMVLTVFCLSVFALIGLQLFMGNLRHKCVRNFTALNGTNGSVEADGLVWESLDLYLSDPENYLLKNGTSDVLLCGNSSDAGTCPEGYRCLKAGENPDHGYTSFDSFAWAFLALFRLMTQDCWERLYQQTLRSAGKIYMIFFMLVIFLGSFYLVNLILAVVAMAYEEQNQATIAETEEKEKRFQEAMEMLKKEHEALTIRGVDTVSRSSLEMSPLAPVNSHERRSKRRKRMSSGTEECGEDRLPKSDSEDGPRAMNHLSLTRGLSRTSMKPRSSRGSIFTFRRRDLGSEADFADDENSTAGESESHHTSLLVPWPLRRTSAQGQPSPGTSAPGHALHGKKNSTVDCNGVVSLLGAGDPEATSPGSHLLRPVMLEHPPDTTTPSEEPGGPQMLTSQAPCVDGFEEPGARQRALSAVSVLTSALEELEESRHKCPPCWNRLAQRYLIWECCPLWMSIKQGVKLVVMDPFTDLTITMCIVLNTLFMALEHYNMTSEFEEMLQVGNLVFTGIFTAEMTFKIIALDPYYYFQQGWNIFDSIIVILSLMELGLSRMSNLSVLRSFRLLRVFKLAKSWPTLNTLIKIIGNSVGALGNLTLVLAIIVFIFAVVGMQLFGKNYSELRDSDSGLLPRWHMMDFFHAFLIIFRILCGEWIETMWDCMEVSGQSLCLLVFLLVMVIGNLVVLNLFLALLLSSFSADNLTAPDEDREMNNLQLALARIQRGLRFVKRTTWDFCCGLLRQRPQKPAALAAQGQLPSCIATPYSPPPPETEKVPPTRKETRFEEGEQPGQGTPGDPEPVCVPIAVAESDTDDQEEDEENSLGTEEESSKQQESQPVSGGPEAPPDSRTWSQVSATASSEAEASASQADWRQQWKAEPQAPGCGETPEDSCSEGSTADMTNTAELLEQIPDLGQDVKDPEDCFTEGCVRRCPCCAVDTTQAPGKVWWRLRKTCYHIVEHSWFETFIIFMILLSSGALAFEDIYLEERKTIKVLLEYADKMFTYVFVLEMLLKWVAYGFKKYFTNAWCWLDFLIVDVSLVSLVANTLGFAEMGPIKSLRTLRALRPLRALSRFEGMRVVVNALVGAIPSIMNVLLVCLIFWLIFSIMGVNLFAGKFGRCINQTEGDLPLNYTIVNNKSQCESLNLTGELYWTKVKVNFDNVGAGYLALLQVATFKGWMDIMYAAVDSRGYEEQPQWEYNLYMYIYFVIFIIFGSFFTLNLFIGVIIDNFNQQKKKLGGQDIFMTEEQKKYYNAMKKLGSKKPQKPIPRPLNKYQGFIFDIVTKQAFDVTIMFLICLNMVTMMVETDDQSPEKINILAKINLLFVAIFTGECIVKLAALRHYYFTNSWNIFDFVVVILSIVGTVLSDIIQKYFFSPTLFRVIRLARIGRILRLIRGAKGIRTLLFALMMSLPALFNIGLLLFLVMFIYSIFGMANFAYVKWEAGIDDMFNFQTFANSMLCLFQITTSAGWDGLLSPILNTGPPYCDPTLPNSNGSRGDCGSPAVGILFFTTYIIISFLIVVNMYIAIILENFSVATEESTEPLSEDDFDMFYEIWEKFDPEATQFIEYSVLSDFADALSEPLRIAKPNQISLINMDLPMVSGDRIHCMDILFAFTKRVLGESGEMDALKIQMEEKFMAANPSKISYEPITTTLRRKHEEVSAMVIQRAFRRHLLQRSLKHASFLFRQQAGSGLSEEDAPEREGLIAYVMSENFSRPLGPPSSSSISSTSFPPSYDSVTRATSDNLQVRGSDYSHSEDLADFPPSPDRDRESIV
Assay Method Text: Whole-cell patch-clamp on HEK293T cells, late INa (CiPA-like protocol with ATX-II)
Assay type: cell-based
Measurement Context: INaLIC50 (model script), value entered in C++ script
Reported Endpoint: IC50 (µM)
Number only, in µM; omit the unit.

Sample NC(=O)O[C@@H](Cn1ncnn1)c1ccccc1Cl [cenobamate] — what was its IC50?
46.5

* * *

Target: hKv11.1 (hERG), IKr (Homo sapiens, UniProt Q12809)
Construct: host or cells: HEK293T
Sequence (Q12809 whole entry): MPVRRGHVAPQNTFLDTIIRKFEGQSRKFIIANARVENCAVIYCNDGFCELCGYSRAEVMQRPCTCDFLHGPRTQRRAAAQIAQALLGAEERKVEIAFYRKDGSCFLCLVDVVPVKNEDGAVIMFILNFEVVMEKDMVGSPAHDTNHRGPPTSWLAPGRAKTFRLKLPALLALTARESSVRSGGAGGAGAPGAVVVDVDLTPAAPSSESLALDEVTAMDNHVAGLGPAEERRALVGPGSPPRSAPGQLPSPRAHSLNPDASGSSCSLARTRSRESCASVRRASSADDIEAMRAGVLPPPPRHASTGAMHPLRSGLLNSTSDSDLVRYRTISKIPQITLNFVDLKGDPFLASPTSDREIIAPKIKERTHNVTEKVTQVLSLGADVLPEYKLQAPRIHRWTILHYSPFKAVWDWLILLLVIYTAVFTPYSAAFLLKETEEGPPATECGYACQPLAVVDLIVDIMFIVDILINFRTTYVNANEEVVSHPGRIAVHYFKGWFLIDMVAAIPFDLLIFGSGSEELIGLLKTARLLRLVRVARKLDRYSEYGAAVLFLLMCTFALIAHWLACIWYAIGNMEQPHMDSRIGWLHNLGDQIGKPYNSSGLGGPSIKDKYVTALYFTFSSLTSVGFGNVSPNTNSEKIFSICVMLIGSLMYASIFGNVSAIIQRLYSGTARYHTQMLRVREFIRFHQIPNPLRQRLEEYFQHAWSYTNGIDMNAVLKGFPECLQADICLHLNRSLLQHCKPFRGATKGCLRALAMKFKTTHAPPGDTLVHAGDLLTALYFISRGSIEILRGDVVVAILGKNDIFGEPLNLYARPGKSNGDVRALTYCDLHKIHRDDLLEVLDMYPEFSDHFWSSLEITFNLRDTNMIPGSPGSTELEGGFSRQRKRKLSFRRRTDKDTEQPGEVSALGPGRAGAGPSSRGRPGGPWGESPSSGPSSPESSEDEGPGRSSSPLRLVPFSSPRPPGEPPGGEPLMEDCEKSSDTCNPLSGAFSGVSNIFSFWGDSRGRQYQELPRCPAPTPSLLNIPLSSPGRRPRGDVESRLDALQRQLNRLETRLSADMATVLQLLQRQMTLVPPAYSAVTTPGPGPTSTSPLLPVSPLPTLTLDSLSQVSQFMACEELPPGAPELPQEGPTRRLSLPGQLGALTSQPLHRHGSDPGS
Assay Method Text: Whole-cell patch-clamp on HEK293T cells, IKr
Format: cell-based
Measurement Context: human, HEK293T cells expressing hKv11.1 (hERG), pH 7.4, cenobamate 200 µM; step at -50 mV; read-out: relative peak IKr inhibition, mean
Reported Endpoint: inhibition at 200 µM (%)
Number only, in %; omit the unit.

Sample NC(=O)O[C@@H](Cn1ncnn1)c1ccccc1Cl [cenobamate] — what was its inhibition at 200 µM?
11
